Cited source for all entries: paper PMC5540273

- System: KIT-autoinhibited
- APPLIED CONDITIONS: concentration: 1 μM,replicates: in singlicate; n = 1;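 note: KINOMEscan kinase panel screen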
ENDPOINT LABEL: %Inh
Answer by giving the amount and then stating its unit.

Look up and report measured %Inh for this entry: `CC(=O)c1c(-c2ccncc2)[nH]c(-c2ccncc2)c1C`
0%

Look up and report measured %Inh for this entry: `CSc1nccc(-c2c(-c3ccc(F)cc3)ncn2CCCN2CCOCC2)n1.Cl`
32%

Look up and report measured %Inh for this entry: `COc1cc2c(Nc3ccc(NC(=O)c4ccccc4)cc3)ncnc2cc1OCCCN1CCOCC1`
41%

Look up and report measured %Inh for this entry: `CN(c1ccccc1CNc1nc(Nc2ccc3c(c2)CC(=O)N3)ncc1C(F)(F)F)S(C)(=O)=O`
0%

Look up and report measured %Inh for this entry: CC(C(=O)NC1CCN(c2ccnc(Nc3ccc(F)cc3)n2)C1)c1ccc(Cl)cc1 (stereo not drawn)
0%

Look up and report measured %Inh for this entry: `Cn1cc(-c2cccc3c(N)c(C(N)=O)nnc23)cn1`
16%

Look up and report measured %Inh for this entry: `Cl.c1ccc(Oc2ccc(Nc3ccnc4cc(-c5ccc(CN6CCNCC6)o5)ccc34)cc2)nc1`
10%

Look up and report measured %Inh for this entry: N#Cc1cccc(C(=O)NC2CCN(c3ccnc(Nc4ccc(F)cc4)n3)C2)c1 (stereo not drawn)
0%

Look up and report measured %Inh for this entry: `O=C(Nc1cccc(Oc2ccc3nccn3n2)c1)Nc1cccc(C(F)(F)F)c1`
68%

====

- System: CSNK2A2
- APPLIED CONDITIONS: concentration: 1 μM,replicates: in singlicate; n = 1
Lab note: class by %Inh, see category 1 = under 5%, category 2 = from 5% up to 40%, category 3 = 40% and over

Which bin, given its %Inh, does `O=C(NOCC1CC1)c1cc(Br)c(F)c(F)c1Nc1ccc(I)cc1Cl` occupy?
category 2

Which bin, given its %Inh, does `CNC(=O)c1ccccc1Nc1nc(Nc2cccc(CS(C)(=O)=O)c2)ncc1C.O=CO` occupy?
category 3

Which bin, given its %Inh, does COc1cc(Nc2nccc(N3CCC(NC(=O)c4cccc(C#N)c4)C3)n2)cc(OC)c1OC (centres unmarked) occupy?
category 1

Which bin, given its %Inh, does `OCCn1cc(-c2cnc3nnn(Cc4ccc5ncccc5c4)c3n2)cn1` occupy?
category 1

Which bin, given its %Inh, does `Cc1ccc2c(-c3ccnc(Nc4ccc(C(F)(F)F)cc4)n3)cnn2n1` occupy?
category 2

Which bin, given its %Inh, does `FC(F)(F)c1cc(Br)cc(Nc2nccc(-c3cnn4ncccc34)n2)c1` occupy?
category 2

Which bin, given its %Inh, does `Cn1ccc2ncnc(Oc3ccc(NC(=O)Nc4cnn(C(C)(C)C)c4)c(Cl)c3)c21` occupy?
category 2

Which bin, given its %Inh, does COc1ccc(Nc2nccc(N3CCC(NC(=O)c4cccc(C#N)c4)C3)n2)cc1 (centres unmarked) occupy?
category 1

Which bin, given its %Inh, does `Cc1ccc(Nc2ccnc(Nc3ccc4c(c3)CS(=O)(=O)C4)n2)cc1O.Cl` occupy?
category 3

Which bin, given its %Inh, does `CN(c1ccc2c(c1)nc(NCc1ccc(F)cc1)n2C)c1ccnc(Nc2ccc(CS(C)(=O)=O)cc2)n1.Cl` occupy?
category 2

Which bin, given its %Inh, does `O=c1[nH]cc(-c2ccc(O)cc2)c2sc(-c3ccncc3)cc12` occupy?
category 2

Which bin, given its %Inh, does `Cn1ccc2ncnc(Oc3ccc(NC(=O)Nc4cncc(C(F)(F)F)c4)c(Cl)c3)c21` occupy?
category 1

Which bin, given its %Inh, does `COc1cc2c(Nc3ccc(NC(=O)c4ccccc4)cc3)ncnc2cc1OCCCN1CCOCC1` occupy?
category 2

Which bin, given its %Inh, does `C[C@@H](Oc1cc(-n2cnc3cc(-c4ccncc4)ccc32)sc1C(N)=O)c1ccccc1Cl` occupy?
category 2

Which bin, given its %Inh, does `COC(=O)c1cccc(NC(=O)NC2CCN(c3ccnc(NCc4ccc(F)cc4)n3)CC2)c1` occupy?
category 1

Which bin, given its %Inh, does CCNCC(Cc1ccccc1)NC(=O)c1cc(Br)c(-c2ccnc3[nH]ccc23)s1.Cl.Cl (centres unmarked) occupy?
category 3
